measurement-description: Assay for Inhibitors of Influenza NS1 Protein Function: Influenza virus replication assay in MDCK cells infected with virus A/PR/8/34
reported-conditions: MDCK infected influenza A/PR/8/34, virus titer TCID50, at 5 µM
This is one part of the list. The source made the active and inactive calls. No rule for the calls is given here.
# valid calls are label 1 = active, label 0 = inactive; nothing else

Problem: # lookup: test call for Cc1ccc(Cn2c(C)nc3c(c2=O)c2nc4ccccc4nc2n3Cc2ccco2)cc1
Result: label 1

Problem: # lookup: test call for O=C1c2cccc(OCC(=O)N3N=C(c4cccs4)CC3c3ccc(F)cc3)c2CCN1Cc1ccccc1 (stereo not given)
Result: label 0

Problem: # lookup: test call for Cc1cc(C)c2cc(CN(Cc3nnnn3Cc3ccc(F)cc3)C3CCCC3)c(=O)[nH]c2c1
Result: label 0

Problem: # lookup: test call for O=c1cc(O)nc(SCc2ccccc2Cl)[nH]1
Result: label 0

Problem: # lookup: test call for CCCc1cc(=O)[nH]c(SCC(=O)c2cc(C)n(CCC)c2C)n1
Result: label 1
